Target under test: Progesterone receptor (Bos taurus, UniProt Q690N0)
Sequence (Q690N0 whole entry): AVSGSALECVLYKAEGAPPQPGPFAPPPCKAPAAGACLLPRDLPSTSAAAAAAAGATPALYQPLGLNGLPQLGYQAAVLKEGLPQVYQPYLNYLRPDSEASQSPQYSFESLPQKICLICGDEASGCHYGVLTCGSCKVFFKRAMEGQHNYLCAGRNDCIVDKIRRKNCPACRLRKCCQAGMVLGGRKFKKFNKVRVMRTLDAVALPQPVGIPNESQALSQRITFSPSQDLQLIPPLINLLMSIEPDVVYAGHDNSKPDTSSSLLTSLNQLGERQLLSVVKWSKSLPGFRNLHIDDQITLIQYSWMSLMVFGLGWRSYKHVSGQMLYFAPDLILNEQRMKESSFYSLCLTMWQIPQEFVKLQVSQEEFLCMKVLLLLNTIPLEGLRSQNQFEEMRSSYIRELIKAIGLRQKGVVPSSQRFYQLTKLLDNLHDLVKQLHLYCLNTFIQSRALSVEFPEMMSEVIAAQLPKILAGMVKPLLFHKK
Assay text: DRUGMATRIX: Progesterone radioligand binding (ligand: [3H] R-5020)
Type: tissue-based, Uterus
Measurement setup: Not Active = under 50% inhibition at 10 µM; read-out: IC50
Measured endpoint: log10 IC50 (log10 of the value in nM)
Scale: log10; quantity: IC50; unit before log: nM

# count of solved cases: 4
CCC(=O)O[C@]1(C(=O)CCl)[C@@H](C)C[C@H]2[C@@H]3CCC4=CC(=O)C=C[C@]4(C)[C@@]3(F)[C@@H](O)C[C@@]21C [CLOBETASOL PROPIONATE] = 1.08
Clc1ccc(COC(Cn2ccnc2)c2ccc(Cl)cc2Cl)cc1 (configuration not stated) = 4.01
C[C@@H]1C[C@H]2[C@@H]3CCC4=CC(=O)C=C[C@]4(C)[C@@]3(F)[C@@H](O)C[C@]2(C)[C@@]1(O)C(=O)CO = 4.37
C[C@@H]1C[C@H]2[C@@H]3CCC4=CC(=O)C=C[C@]4(C)[C@@]3(F)[C@@H](O)C[C@]2(C)[C@H]1C(=O)CO = 1.92

Using the record for C#CC1(O)CC[C@H]2[C@@H]3CCC4=CC(=O)CC[C@@H]4[C@H]3CC[C@@]21CC (some centres not stated) , report its log10 IC50.
0.55

Using the record for C#C[C@]1(OC(C)=O)CC[C@H]2[C@@H]3CCC4=C[C@@H](OC(C)=O)CC[C@@H]4[C@H]3CC[C@@]21C [ETHYNODIOL DIACETATE] , report its log10 IC50.
2.20

Using the record for CC(=O)[C@@]1(O)CC[C@H]2[C@@H]3CCC4=CC(=O)CC[C@]4(C)[C@H]3CC[C@@]21C [HYDROXYPROGESTERONE] , report its log10 IC50.
1.08

----------
Target under test: UniProt:P04150
Sequence (P04150 whole entry): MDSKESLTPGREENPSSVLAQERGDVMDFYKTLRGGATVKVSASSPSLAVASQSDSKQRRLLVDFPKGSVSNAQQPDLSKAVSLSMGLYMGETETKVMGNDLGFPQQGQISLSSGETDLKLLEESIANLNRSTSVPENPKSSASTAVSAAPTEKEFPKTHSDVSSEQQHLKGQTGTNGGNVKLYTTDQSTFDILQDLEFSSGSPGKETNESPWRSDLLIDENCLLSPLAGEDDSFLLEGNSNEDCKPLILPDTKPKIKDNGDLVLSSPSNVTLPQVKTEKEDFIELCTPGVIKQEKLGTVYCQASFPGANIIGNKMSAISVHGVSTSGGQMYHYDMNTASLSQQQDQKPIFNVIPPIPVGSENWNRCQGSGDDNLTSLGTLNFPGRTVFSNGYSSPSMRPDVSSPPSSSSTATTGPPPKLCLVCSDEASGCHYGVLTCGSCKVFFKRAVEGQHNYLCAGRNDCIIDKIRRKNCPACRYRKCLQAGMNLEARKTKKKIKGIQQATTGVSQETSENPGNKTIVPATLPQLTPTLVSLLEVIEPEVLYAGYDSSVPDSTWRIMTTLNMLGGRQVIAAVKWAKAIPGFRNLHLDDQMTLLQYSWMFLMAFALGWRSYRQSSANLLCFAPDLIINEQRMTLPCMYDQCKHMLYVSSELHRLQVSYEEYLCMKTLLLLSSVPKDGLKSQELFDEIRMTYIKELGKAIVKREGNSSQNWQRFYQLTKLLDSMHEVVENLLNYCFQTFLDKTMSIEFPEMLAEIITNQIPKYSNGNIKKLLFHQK
Measurement setup: hela s3
Measured endpoint: IC50

# count of solved cases: 5
CCCCOc1cc(CC2CNC(=O)N2)ccc1OC (stereo unspecified) = Not Active
COC(=O)Nc1nc2ccc(C(=O)c3cccs3)cc2[nH]1 = Not Active
CN(C)[C@@H]1C(O)=C(C(N)=O)C(=O)[C@@]2(O)C(O)=C3C(=O)c4c(O)ccc(Cl)c4[C@@](C)(O)[C@H]3C[C@@H]12 = Not Active
O=C(O)c1cn(-c2ccc(F)cc2)c2cc(N3CCNCC3)c(F)cc2c1=O = Not Active
CCN1CCC[C@H]1CNC(=O)c1cc(S(N)(=O)=O)ccc1OC [LEVOSULPIRIDE] = Not Active

Using the record for C[C@@H]1CC[C@@]2(OC1)O[C@H]1[C@@H](O)[C@H]3[C@@H]4CC[C@H]5C[C@@H](O[C@@H]6O[C@H](CO)[C@H](O[C@@H]7O[C@H](CO)C(O)[C@H](O[C@@H]8OC[C@@H](O)[C@H](O)[C@H]8O)[C@H]7O[C@@H]7O[C@H](CO)[C@H](O)[C@H](O[C@@H]8O[C@H](CO)[C@@H](O)[C@H](O)[C@H]8O)[C@H]7O)[C@H](O)[C@H]6O)[C@H](O)C[C@]5(C)[C@H]4CC[C@]3(C)[C@H]1[C@@H]2C (stereo partly specified) , report its IC50.
Not Active

----------
Target under test: Carbonic anhydrase 2 (Homo sapiens)
Assay text: DRUGMATRIX: Carbonic Anhydrase II enzyme inhibition (substrate: 4-Nitrophenyl acetate (4-NPA))
Type: tissue-based
Measurement setup: erythrocyte; Not Active = under 50% inhibition at 10 µM
Measured endpoint: IC50

# count of solved cases: 4
CC(=O)[C@H]1[C@H](C#N)C[C@H]2[C@@H]3CC=C4C[C@@H](O)CC[C@]4(C)[C@H]3CC[C@@]21C [PREGNENOLONE CARBONITRILE] = Not Active
Fc1ccc(C(c2ccc(F)cc2)N2CCN(C/C=C/c3ccccc3)CC2)cc1 [FLUNARIZINE] = Not Active
N#Cc1ccc(C(c2ccc(C#N)cc2)n2cncn2)cc1 [LETROZOLE] = Not Active
NCCCC(O)(P(=O)(O)O)P(=O)(O)O [ALENDRONIC ACID] = Not Active

Using the record for Brc1c(NC2=NCCN2)ccc2nccnc12 [BRIMONIDINE] , report its IC50.
Not Active

Using the record for COc1ccc2c3c1O[C@H]1C[C@@H](O)C=C[C@@]31CCN(C)C2 [GALANTAMINE] , report its IC50.
Not Active

Using the record for O=C1Nc2ccc(Cl)cc2C(c2ccccc2Cl)=NC1O (configuration not stated) [LORAZEPAM] , report its IC50.
Not Active

Using the record for O=C1CN=C(c2ccccc2Cl)c2cc([N+](=O)[O-])ccc2N1 [CLONAZEPAM] , report its IC50.
Not Active

Using the record for CCN(CC)CCOc1ccc(/C(=C(/Cl)c2ccccc2)c2ccccc2)cc1 [ENCLOMIPHENE] , report its IC50.
Not Active

Using the record for Oc1c(Cl)cc(Cl)c(Cl)c1Cc1c(O)c(Cl)cc(Cl)c1Cl [HEXACHLOROPHENE] , report its IC50.
Not Active

Using the record for O=C(Nc1ccc(Br)cc1)c1cc(Br)cc(Br)c1O [TRIBROMSALAN] , report its IC50.
Not Active

Using the record for O=C(N/N=C/c1ccc([N+](=O)[O-])o1)c1cc([N+](=O)[O-])cc([N+](=O)[O-])c1O [NIFURSOL] , report its IC50.
Not Active

Using the record for CNC1(c2ccccc2Cl)CCCCC1=O (configuration not stated) [KETAMINE] , report its IC50.
Not Active

Using the record for CC(=O)[C@@]1(O)CC[C@H]2[C@@H]3CCC4=CC(=O)CC[C@]4(C)[C@H]3CC[C@@]21C [HYDROXYPROGESTERONE] , report its IC50.
Not Active

Using the record for CC(c1cc2ccccc2s1)N(O)C(N)=O (configuration not stated) [ZILEUTON] , report its IC50.
Not Active

Using the record for COc1ccc2cc3[n+](cc2c1OC)CCc1cc2c(cc1-3)OCO2.[Cl-] [BERBERINE CHLORIDE] , report its IC50.
Not Active

Using the record for CC(C)c1cccc(C(C)C)c1O [PROPOFOL] , report its IC50.
Not Active

Using the record for Cn1c(=O)c2nc[nH]c2n(C)c1=O.O [THEOPHYLLINE] , report its IC50.
Not Active

Using the record for O=c1cc(N2CCOCC2)oc2c(-c3ccccc3)cccc12 [LY-294002] , report its IC50.
Not Active

Using the record for C[C@@H]1C[C@H]2[C@@H]3CCC4=CC(=O)C=C[C@]4(C)[C@@]3(F)[C@@H](O)C[C@]2(C)[C@H]1C(=O)CO [DESOXIMETASONE] , report its IC50.
Not Active
